test system: MALME-3M melanoma; test: NCI tumour cell line growth inhibition, 48 h
Value type: TGI

[[record]]
compound = "O=P(CN1CCOCC1)(c1ccccc1)c1ccccc1"
target_or_system = "MALME-3M melanoma"
value_type = "TGI"
observed_value = "> 100 µM"

[[record]]
compound = "CCOC(=O)[C@@]12C[C@](/C=C/OC)(O[Si](C)(C)C)[C@@]13c1cc(OC)c(OC)cc1CCN3C(=O)C2=O"
target_or_system = "MALME-3M melanoma"
value_type = "TGI"
observed_value = "> 100 µM"

[[record]]
compound = "C=CCC(N[C@@H](CO)c1ccccc1)c1ccc2ccccc2n1 (stereo partly specified)"
target_or_system = "MALME-3M melanoma"
value_type = "TGI"
observed_value = "> 100 µM"

[[record]]
compound = "O=C(O)CNc1ccc2c(c1)Cc1cc(Br)ccc1-2"
target_or_system = "MALME-3M melanoma"
value_type = "TGI"
observed_value = "> 67.9 µM"

[[record]]
compound = "CC1CC(=O)N(N(C)C)C2(C#N)C(=O)N=C(N)C12C#N (stereo unspecified)"
target_or_system = "MALME-3M melanoma"
value_type = "TGI"
observed_value = "> 100 µM"


Below: the item to evaluate.
The compound C[N+](C)(CCNc1ccc(NCC[N+](C)(C)Cc2ccc([N+](=O)[O-])cc2)c2c1C(=O)c1c(O)ccc(O)c1C2=O)Cc1ccc([N+](=O)[O-])cc1 showed TGI equal to > 50 µM

---

Recorded TGI for the following compounds
system: OVCAR-3 ovarian; test: NCI tumour cell line growth inhibition, 48 h

[[record]]
compound = "CN(C)C(=O)C(F)(F)C(c1ccccc1)C1C(=O)N(C)C(=O)N(C)C1=O (stereo not drawn)"
value_type = "TGI"
observed_value = "> 100 µM"


Measured TGI (OVCAR-3 ovarian), entry COC(=O)c1ccccc1C1CN=NC12Cc1ccc(C)cc1C2=O (stereo not drawn) : > 100 µM

Measured TGI (OVCAR-3 ovarian), entry Clc1ccc(-c2cn3c(nc4ccccc43)c(-c3ccccc3)n2)cc1 : > 82.4 µM

Measured TGI (OVCAR-3 ovarian), entry Nc1nc(Cl)c(CO)c(NCC2(CO)CCC2)n1 : > 100 µM

Measured TGI (OVCAR-3 ovarian), entry CC(C)=CCC[C@@H](C)C1=C(O)C(N[C@H](C)c2ccccc2)=C(C)C(=O)C1=O : > 100 µM

Measured TGI (OVCAR-3 ovarian), entry O=[N+]([O-])c1ccccc1N=Nc1c(O)[nH]c2c(Cl)cccc12 : > 85.3 µM

Measured TGI (OVCAR-3 ovarian), entry CC(C)(C)OC(=O)Cn1ncn(NC(=O)Cc2ccccc2)c1=S : > 10 µM

Measured TGI (OVCAR-3 ovarian), entry NC(Cc1ccccc1)C(=O)OCN1C(=O)C2C3C=CC(C2C1=O)C1C(=O)N(COC(=O)C(N)Cc2ccccc2)C(=O)C31 (stereo not drawn) : > 100 µM

---

Recorded GI50 for the following molecules
tested on: CAKI-1 renal; experiment: NCI tumour cell line growth inhibition, 48 h

Observe how each entry below is paired with its result.
[[record]]
molecule = "CN1C2C=CC(=O)C1C1C(=O)N(c3ccccc3)C(=O)C12 (centres undefined)"
observed_value = "1660 nM"

[[record]]
molecule = "COc1ccc(-c2nsc3c2NC(=O)CC3c2ccsc2)cc1 (centres undefined)"
observed_value = "298 nM"

[[record]]
molecule = "COc1cc2ncn(-c3cc(OCc4ccccc4C(F)(F)F)c(C(N)=O)s3)c2cc1OC"
observed_value = "3880 nM"


The molecule [Br][Pb]([c]1ccccc1)([c]1ccccc1)[c]1ccccc1 showed GI50 equal to 200 nM
